- ASSAY_SYSTEM: Neu5Ac(a2-3)Gal(b1-3)[Neu5Ac(a2-6)]GalNAc
- ASSAY_COMMENT: glycan array binding signal (z-score within array); higher = stronger binding
- STUDY_CONDITIONS: glycan notation: IUPAC condensed, linker removed
The entries come from a sample that favours the strongest signals as a whole.
Measured glycan array binding signal (z-score), listed per entry.
// print number alone

binder="Dectin-1 (Mus musculus), Q6QLQ4 (protein) GHNSGRNPEEKDNFLSRNKENHKPTESSLDEKVAPSKASQTTGGFSQPCLPNWIMHGKSCYLFSFSGNSWYGSKRHCSQLGAHLLKIDNSKEFEFIESQTSSHRINAFWIGLSRNQSEGPWFWEDGSAFFPNSFQVRNTAPQESLLHNCVWIHGSEVYNQICNTSSYSICEKEL" result_number=-0.069

query: Would you mind telling me what glycan array binding signal (z-score) value was observed for PNA (Arachis hypogaea), P02872 (protein) MKPFCVFLTFFLLLAASSKKVDSAETVSFNFNSFSEGNPAINFQGDVTVLSNGNIQLTNLNKVNSVGRVLYAMPVRIWSSATGNVASFLTSFSFEMKDIKDYDPADGIIFFIAPEDTQIPAGSIGGGTLGVSDTKGAGHFVGVEFDTYSNSEYNDPPTDHVGIDVNSVDSVKTVPWNSVSGAVVKVTVIYDSSTKTLSVAVTNDNGDITTIAQVVDLKAKLPERVKFGFSASGSLGGRQIHLIRSWSFTSTLITTTRRSIDNNEKKIMNMASA ?
result: -0.176

query: How about this binder: CSA (Cytisus scoparius), P29257 (protein) SEELSFSFTKFKTDQKNLILQRDALITPTGKLQLTTVENGKPAAYSLGRALYSTPIHIWDKSTGDEASFATFFSFVISDAPNPSTAATDGLAFFLAPADTQPQSAGGYLGLFEKDSSYNSSNQIVAVEFDTYYNSAWDPQTNPHIGIDVNTIKSKKVSSWGFKNGNVATVLITYQPSSKSLVASLVYPSGQTSDKTSYIISANVDLKATVPEWVRIGFSATTGQTDNYIETHDILSWSFKSKLPATKN
result: -0.159

query: Same lookup for Arath Fbox LD (Arabidopsis thaliana) (protein) EFSVWLEKASGKRCLMLSAMNLSIIWGDNPQYWQWIPIPESRFEKVAKLRDVCWFEIRGRTNTRVLSPRTRYSAYIVFKGVDKCYGFQNVAIEAAVGVVGQEPSRRLICFSEAIRRGRRNVVKPKQREDGWMEIELGEFFNDGGIMDNDEIEMSALETKQLNRKCGLIIQGIEIRPAKILAAASFLEQKLISEEDLNSAVDHHHHHH , please.
result: -0.264

query: Further, for Intelectin 1 (Homo sapiens), Q8WWA0 (protein) MNQLSFLLFLIATTRGWSTDEANTYFKEWTCSSSPSLPRSCKEIKDECPSAFDGLYFLRTENGVIYQTFCDMTSGGGGWTLVASVHENDMRGKCTVGDRWSSQQGSKAVYPEGDGNWANYNTFGSAEAATSDDYKNPGYYDIQAKDLGIWHVPNKSPMQHWRNSSLLRYRTDTGFLQTLGHNLFGIYQKYPVKYGEGKCWTDNGPVIPVVYDFGDAQKTASYYSPYGQREFTAGFVQFRVFNNERAANALCAGMRVTGCNTEHHCIGGGGYFPEASPQQCGDFSGFDWSGYGTHVGYSSSREITEAAVLLFYR ?
result: -0.094
